target: T1, human HER-2 protein (soluble / recombinant, used in SPR) (human, UniProt P04626 23-652); assay: SPR, human HER2 immobilised, Fab flown, 1:1 Langmuir model
T1 construct: also called immobilized HER2 protein; recombinant HER-2
MEASURED PROPERTY: Kd (nM)
Report as a plain number; the unit nM is understood.

# Kd of PFB4 Fab (Fab, V domains shown, Printed entries run through CL and CH1 (Fab chains); Label B4 tied to PFB4 by inference) VH: EVQLVQSGGGVVQPGRSLRLSCAASGFTFSSYGMHWVRQAPGKGLEWVAVISYDGSNKYYADSVKGRFTISRDDSKNTLYLQMNSLRAEDTAVYYCAKDRGYYGMDVWGQGTTVTVSS VL: QAVVIQEPSLTVSPGGTVTLTCGSTTGAVTSGHYPSWFQQKPGQAPRALIYSTSNKHSWTPARFSGSLLGGKAALTLSGVQPEDEAEYYCLLYYGGARVFGGGTKLTVLG = 17.6

# Kd of PFE1 Fab (Fab, V domains shown, Printed entries run through CL and CH1 (Fab chains); Label E1 tied to PFE1 by inference) VH: EVQLVQSGGGVVQPGRSLRLSCAASGFTFSSYAMHWVRQAPGKGLEWVAVISYDGSNKYYADSVKGRFTISRDNSKNTLYLQMNSLRAEDTAVYYCARSRGYYGMDVWGQGTTVTVSS VL: DVVMTQSPLSLPVTLGQPASISCTSSQSLVYSDGNTYLNWFQQRPGQSPRRLIYKVSKRDSGVPDRFSGSGSGTDFTLKISRVEAEDVAIYYCMQGTHWPLTFGGGTKVEIKR = 16.5

# Kd of PFF5 Fab (Fab, V domains shown) VH: QVQLQESGPGLVKPSETLSLTCTVSGGSISSSSYYWGWIRQPPGKGLEWIGSIYYSGSTYYNPSLKSRVTISVDTSKNQFSLRLSSVSAADTAVYYCARYAPDSSGYLVAFDIWGQGTMVTVSS VL: QAVVIQEPSFSVSPGGTVTLTCGLSSGSVSTTYYPSWYQQTPGQAPRTLIYSTNTRSSGVPDRFSGSILGNKAALTITGAQADDESDYYCVLYMGNGISVFGGGTKLTVLG = 305

# Kd of PFG3 Fab (Fab, V domains shown, Printed entries run through CL and CH1 (Fab chains); Label G3 tied to PFG3 by inference) VH: EVQLVQSGAEVKKPGTSVTVSCRASGFTFSDYYIHWVRQAPGQGLEWMGWVSAYNGDTNYAQKFQGRVTVTTDTSTSTAYMELRSLRSDDTAVYFCAREIASYSGSYYDYWGQGTLVTVSS VL: QAVVLQEPSFSVSPGGTVTLTCGLTSGAVSSSYYPSWYQQTPGQAPRTLIYNTDIRFSGVPDRFSGSILGNKAALTITGAQADDESDYYCVLYMGSGISVFGGGTKLTVLG = 183
